Test system: P388 mouse leukemia cells
test_context: 92 h
Where a SMILES comes first, the peptide text is derived from it. [ ]: non-standard residue; d: D form. The star is where a group is joined. NHCH2CH2OH = OCCN*; For = O=C*
Property: cell viability/%; scope: individual compounds
measurement_name: cell viability/% (%)

CNC(=O)C[C@@H](NC(=O)[C@H](Cc1c[nH]c2ccccc12)NC(=O)[C@@H](CC(C)C)NC(=O)[C@H](Cc1c[nH]c2ccccc12)NC(=O)[C@@H](CC(C)C)NC(=O)[C@H](Cc1c[nH]c2ccccc12)NC(=O)[C@H](NC(=O)[C@@H](NC(=O)[C@H](NC(=O)[C@H](C)NC(=O)[C@@H](CC(C)C)NC(=O)[C@H](C)NC(=O)CNC(=O)[C@@H](NC=O)C(C)C)C(C)C)C(C)C)C(C)C)C(=O)N[C@@H](Cc1c[nH]c2ccccc12)C(=O)NCCO [compound 2020] (For-VGA[dL]A[dV]V[dV]W[dL]W[dL]W[dD](NHMe)W-NHCH2CH2OH); 100.0
CC(C)C[C@@H](NC(=O)[C@H](C)NC(=O)[C@H](NC(=O)[C@H](C)NC(=O)CNC(=O)[C@@H](NC=O)C(C)C)C(C)C)C(=O)N[C@H](C(=O)N[C@@H](C(=O)N[C@@H](Cc1c[nH]c2ccccc12)C(=O)N[C@@H](C(=O)N[C@@H](Cc1c[nH]c2ccccc12)C(=O)N[C@H](CC(C)C)C(=O)N[C@@H](Cc1c[nH]c2ccccc12)C(=O)N[C@@H](C(=O)N[C@@H](Cc1c[nH]c2ccccc12)C(=O)NCCO)C(C)C)C(C)C)[C@H](C)O)C(C)C [compound 7131] (For-VGA[dV]A[dL]V[dT]W[dV]W[dL]W[dV]W-NHCH2CH2OH); 100.0
CC(C)C[C@@H](NC(=O)[C@H](C)NC(=O)[C@H](NC(=O)[C@H](C)NC(=O)CNC(=O)[C@@H](NC=O)C(C)C)[C@H](C)O)C(=O)N[C@H](C(=O)N[C@H](CC(C)C)C(=O)N[C@@H](Cc1c[nH]c2ccccc12)C(=O)N[C@@H](C(=O)N[C@@H](Cc1c[nH]c2ccccc12)C(=O)N[C@H](CC(C)C)C(=O)N[C@@H](Cc1c[nH]c2ccccc12)C(=O)N[C@@H](C(=O)N[C@@H](Cc1c[nH]c2ccccc12)C(=O)NCCO)C(C)C)C(C)C)C(C)C [compound 6797] (For-VGA[dT]A[dL]V[dL]W[dV]W[dL]W[dV]W-NHCH2CH2OH); 100.0
CNC(=O)C[C@@H](NC(=O)[C@H](Cc1c[nH]c2ccccc12)NC(=O)[C@@H](CC(C)C)NC(=O)[C@H](Cc1c[nH]c2ccccc12)NC(=O)[C@H](NC(=O)[C@H](Cc1c[nH]c2ccccc12)NC(=O)[C@H](NC(=O)[C@@H](NC(=O)[C@@H](CC(C)C)NC(=O)[C@H](C)NC(=O)[C@@H](CC(C)C)NC(=O)[C@H](C)NC(=O)CNC(=O)[C@@H](NC=O)C(C)C)C(C)C)C(C)C)C(C)C)C(=O)N[C@@H](Cc1c[nH]c2ccccc12)C(=O)NCCO [compound 10678] (For-VGA[dL]A[dL]V[dV]W[dV]W[dL]W[dD](NHMe)W-NHCH2CH2OH); 76.0

###

Tested on: P388 mouse leukemia cells
test_context: 92 h
Where a SMILES comes first, the peptide text is derived from it. [ ]: non-standard residue; d: D form. The star is where a group is joined. NHCH2CH2OH = OCCN*; For = O=C*
measurement_name: cell viability/% (%)

CC(C)C[C@@H](NC(=O)[C@H](Cc1c[nH]c2ccccc12)NC(=O)[C@H](NC(=O)[C@H](Cc1c[nH]c2ccccc12)NC(=O)[C@@H](CC(C)C)NC(=O)[C@H](Cc1c[nH]c2ccccc12)NC(=O)[C@H](NC(=O)[C@@H](NC(=O)[C@H](NC(=O)[C@H](C)NC(=O)[C@H](NC(=O)[C@H](C)NC(=O)CNC(=O)[C@@H](NC=O)C(C)C)C(C)C)C(C)C)C(C)C)C(C)C)[C@H](C)O)C(=O)N[C@@H](Cc1c[nH]c2ccccc12)C(=O)NCCO [compound 1849] (For-VGA[dV]A[dV]V[dV]W[dL]W[dT]W[dL]W-NHCH2CH2OH); 100.0
CC(C)C[C@@H](NC(=O)[C@H](C)NC(=O)[C@H](NC(=O)[C@H](C)NC(=O)CNC(=O)[C@@H](NC=O)C(C)C)[C@H](C)O)C(=O)N[C@H](C(=O)N[C@H](CC(C)C)C(=O)N[C@@H](Cc1c[nH]c2ccccc12)C(=O)N[C@@H](C(=O)N[C@@H](Cc1c[nH]c2ccccc12)C(=O)N[C@H](CC(C)C)C(=O)N[C@@H](Cc1c[nH]c2ccccc12)C(=O)N[C@@H](C(=O)N[C@@H](Cc1c[nH]c2ccccc12)C(=O)NCCO)C(C)C)[C@H](C)O)C(C)C [compound 3437] (For-VGA[dT]A[dL]V[dL]W[dT]W[dL]W[dV]W-NHCH2CH2OH); 100.0

###

Test system: Streptococcus pyogenes SSI-9
test_protocol: Antibacterial activity assay of bead-derived peptides (three concentrations)
Assay type: cell-based
Design: key: +++: inhibition by the 640-fold diluted peptide solution; ++: inhibition by the 160-fold diluted solution; +: inhibition by the 40-fold diluted solution; -: no inhibition
test_context: S. pyogenes, bead-derived peptide solution, three concentrations
Where a SMILES comes first, the peptide text is derived from it. [ ]: non-standard residue; d: D form. The star is where a group is joined. NHCH2CH2OH = OCCN*; For = O=C*
measurement_name: antibacterial activity

CC(C)C[C@@H](NC(=O)[C@H](C)NC(=O)CNC(=O)[C@@H](NC=O)C(C)C)C(=O)N[C@@H](C)C(=O)N[C@H](CC(C)C)C(=O)N[C@H](C(=O)N[C@H](CC(C)C)C(=O)N[C@@H](Cc1c[nH]c2ccccc12)C(=O)N[C@@H](C(=O)N[C@@H](Cc1c[nH]c2ccccc12)C(=O)N[C@H](CC(C)C)C(=O)N[C@@H](Cc1c[nH]c2ccccc12)C(=O)N[C@H](CC(C)C)C(=O)N[C@@H](Cc1c[nH]c2ccccc12)C(=O)NCCO)C(C)C)C(C)C [compound 2828] (For-VGA[dL]A[dL]V[dL]W[dV]W[dL]W[dL]W-NHCH2CH2OH); -
CC(C)C[C@@H](NC(=O)[C@H](Cc1c[nH]c2ccccc12)NC(=O)[C@@H](CC(C)C)NC(=O)[C@@H](NC(=O)[C@H](NC(=O)[C@H](C)NC(=O)[C@H](NC(=O)[C@H](C)NC(=O)CNC(=O)[C@@H](NC=O)C(C)C)C(C)C)C(C)C)C(C)C)C(=O)N[C@@H](Cc1c[nH]c2ccccc12)C(=O)N[C@@H](C(=O)N[C@@H](Cc1c[nH]c2ccccc12)C(=O)N[C@@H](C(=O)N[C@@H](Cc1c[nH]c2ccccc12)C(=O)NCCO)C(C)C)C(C)C [compound 8969] (For-VGA[dV]A[dV]V[dL]W[dL]W[dV]W[dV]W-NHCH2CH2OH); -

###

Test system: Streptococcus pyogenes SSI-9
test_protocol: Antibacterial activity assay of bead-derived peptides (three concentrations)
Format: cell-based
Design: key: +++: inhibition by the 640-fold diluted peptide solution; ++: inhibition by the 160-fold diluted solution; +: inhibition by the 40-fold diluted solution; -: no inhibition
test_context: S. pyogenes, bead-derived peptide solution, three concentrations
Where a SMILES comes first, the peptide text is derived from it. [ ]: non-standard residue; d: D form. The star is where a group is joined. NHCH2CH2OH = OCCN*; For = O=C*
measurement_name: antibacterial activity

CC(C)C[C@@H](NC(=O)[C@H](C)NC(=O)CNC(=O)[C@@H](NC=O)C(C)C)C(=O)N[C@@H](C)C(=O)N[C@H](CC(C)C)C(=O)N[C@H](C(=O)N[C@H](CC(C)C)C(=O)N[C@@H](Cc1c[nH]c2ccccc12)C(=O)N[C@@H](C(=O)N[C@@H](Cc1c[nH]c2ccccc12)C(=O)N[C@@H](C(=O)N[C@@H](Cc1c[nH]c2ccccc12)C(=O)N[C@@H](C(=O)N[C@@H](Cc1c[nH]c2ccccc12)C(=O)NCCO)C(C)C)C(C)C)C(C)C)C(C)C [compound 11323] (For-VGA[dL]A[dL]V[dL]W[dV]W[dV]W[dV]W-NHCH2CH2OH); -
CC(C)C[C@@H](NC(=O)[C@H](C)NC(=O)CNC(=O)[C@@H](NC=O)C(C)C)C(=O)N[C@@H](C)C(=O)N[C@@H](C(=O)N[C@H](C(=O)N[C@H](CC(C)C)C(=O)N[C@@H](Cc1c[nH]c2ccccc12)C(=O)N[C@H](CC(C)C)C(=O)N[C@@H](Cc1c[nH]c2ccccc12)C(=O)N[C@@H](C(=O)N[C@@H](Cc1c[nH]c2ccccc12)C(=O)N[C@H](CC(C)C)C(=O)N[C@@H](Cc1c[nH]c2ccccc12)C(=O)NCCO)C(C)C)C(C)C)C(C)C [compound 7191] (For-VGA[dL]A[dV]V[dL]W[dL]W[dV]W[dL]W-NHCH2CH2OH); +
CC(C)C[C@@H](NC(=O)[C@H](C)NC(=O)CNC(=O)[C@@H](NC=O)C(C)C)C(=O)N[C@@H](C)C(=O)N[C@H](CC(C)C)C(=O)N[C@H](C(=O)N[C@@H](C(=O)N[C@@H](Cc1c[nH]c2ccccc12)C(=O)N[C@@H](C(=O)N[C@@H](Cc1c[nH]c2ccccc12)C(=O)N[C@@H](C(=O)N[C@@H](Cc1c[nH]c2ccccc12)C(=O)N[C@H](CC(C)C)C(=O)N[C@@H](Cc1c[nH]c2ccccc12)C(=O)NCCO)C(C)C)C(C)C)C(C)C)C(C)C [compound 905] (For-VGA[dL]A[dL]V[dV]W[dV]W[dV]W[dL]W-NHCH2CH2OH); +
CNC(=O)C[C@@H](NC(=O)[C@@H](NC(=O)[C@H](NC(=O)[C@H](C)NC(=O)[C@H](NC(=O)[C@H](C)NC(=O)CNC(=O)[C@@H](NC=O)C(C)C)C(C)C)C(C)C)C(C)C)C(=O)N[C@@H](Cc1c[nH]c2ccccc12)C(=O)N[C@H](CC(C)C)C(=O)N[C@@H](Cc1c[nH]c2ccccc12)C(=O)N[C@H](CC(C)C)C(=O)N[C@@H](Cc1c[nH]c2ccccc12)C(=O)N[C@@H](C(=O)N[C@@H](Cc1c[nH]c2ccccc12)C(=O)NCCO)C(C)C [compound 11796] (For-VGA[dV]A[dV]V[dD](NHMe)W[dL]W[dL]W[dV]W-NHCH2CH2OH); -
CNC(=O)C[C@@H](NC(=O)[C@@H](NC(=O)[C@H](NC(=O)[C@H](C)NC(=O)[C@@H](CC(C)C)NC(=O)[C@H](C)NC(=O)CNC(=O)[C@@H](NC=O)C(C)C)C(C)C)C(C)C)C(=O)N[C@@H](Cc1c[nH]c2ccccc12)C(=O)N[C@H](CC(C)C)C(=O)N[C@@H](Cc1c[nH]c2ccccc12)C(=O)N[C@H](CC(C)C)C(=O)N[C@@H](Cc1c[nH]c2ccccc12)C(=O)N[C@H](CC(C)C)C(=O)N[C@@H](Cc1c[nH]c2ccccc12)C(=O)NCCO [compound 9336] (For-VGA[dL]A[dV]V[dD](NHMe)W[dL]W[dL]W[dL]W-NHCH2CH2OH); -
CNC(=O)C[C@@H](NC(=O)[C@H](Cc1c[nH]c2ccccc12)NC(=O)[C@@H](CC(C)C)NC(=O)[C@H](Cc1c[nH]c2ccccc12)NC(=O)[C@@H](CC(C)C)NC(=O)[C@H](Cc1c[nH]c2ccccc12)NC(=O)[C@H](NC(=O)[C@@H](NC(=O)[C@@H](CC(C)C)NC(=O)[C@H](C)NC(=O)[C@@H](CC(C)C)NC(=O)[C@H](C)NC(=O)CNC(=O)[C@@H](NC=O)C(C)C)C(C)C)C(C)C)C(=O)N[C@@H](Cc1c[nH]c2ccccc12)C(=O)NCCO [compound 11401] (For-VGA[dL]A[dL]V[dV]W[dL]W[dL]W[dD](NHMe)W-NHCH2CH2OH); -
CNC(=O)C[C@@H](NC(=O)[C@@H](NC(=O)[C@@H](CC(C)C)NC(=O)[C@H](C)NC(=O)[C@H](NC(=O)[C@H](C)NC(=O)CNC(=O)[C@@H](NC=O)C(C)C)C(C)C)C(C)C)C(=O)N[C@@H](Cc1c[nH]c2ccccc12)C(=O)N[C@H](CC(C)C)C(=O)N[C@@H](Cc1c[nH]c2ccccc12)C(=O)N[C@@H](C(=O)N[C@@H](Cc1c[nH]c2ccccc12)C(=O)N[C@H](CC(C)C)C(=O)N[C@@H](Cc1c[nH]c2ccccc12)C(=O)NCCO)C(C)C [compound 12687] (For-VGA[dV]A[dL]V[dD](NHMe)W[dL]W[dV]W[dL]W-NHCH2CH2OH); -
CC(C)C[C@@H](NC(=O)[C@H](C)NC(=O)[C@H](NC(=O)[C@H](C)NC(=O)CNC(=O)[C@@H](NC=O)C(C)C)C(C)C)C(=O)N[C@H](C(=O)N[C@@H](C(=O)N[C@@H](Cc1c[nH]c2ccccc12)C(=O)N[C@H](CC(C)C)C(=O)N[C@@H](Cc1c[nH]c2ccccc12)C(=O)N[C@@H](C(=O)N[C@@H](Cc1c[nH]c2ccccc12)C(=O)N[C@@H](C(=O)N[C@@H](Cc1c[nH]c2ccccc12)C(=O)NCCO)C(C)C)C(C)C)[C@H](C)O)C(C)C [compound 3375] (For-VGA[dV]A[dL]V[dT]W[dL]W[dV]W[dV]W-NHCH2CH2OH); -
